Tested on: 926638-142-R-J1-PDC complex spheroid viability;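 note: spheroids exposed to drugs for one week before readout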
measurement-description: Anticancer human tumor 926638-142-R-J1-PDC patient-derived endometrial carcinoma cell line growth inhibition [POLQ]
stated-conditions: curve of first compound; second compound 10 µM
Lab note: cut-off is 100 nM. Strictly less in IC50 is MET. Exactly 100 nM or more is NOT MET.

| molecule | discrete-label |
| --- | --- |
| Nc1ccn(C2OC(CO)C(O)C2(F)F)c(=O)n1 (stereo not given) + COC1C(OC(N)=O)C(O)C(Oc2ccc3c(O)c(NC(=O)c4ccc(O)c(CC=C(C)C)c4)c(=O)oc3c2C)OC1(C)C | NOT MET |
| C=CC(=O)N1CCN(c2nc(=O)n(-c3c(C)ccnc3C(C)C)c3nc(-c4c(O)cccc4F)c(F)cc23)C(C)C1 (stereo not given) + COC1C(OC(N)=O)C(O)C(Oc2ccc3c(O)c(NC(=O)c4ccc(O)c(CC=C(C)C)c4)c(=O)oc3c2C)OC1(C)C | NOT MET |
| CCc1cc2c(N3CCc4c(cc(Cn5ccnc5)cc4-c4cn(C)nc4C(F)(F)F)C3=O)cc(C)nc2c(OC)n1 + COC1C(OC(N)=O)C(O)C(Oc2ccc3c(O)c(NC(=O)c4ccc(O)c(CC=C(C)C)c4)c(=O)oc3c2C)OC1(C)C | NOT MET |
| COc1cc(C2c3cc4c(cc3C(OC3OC5COC(C)OC5C(O)C3O)C3COC(=O)C23)OCO4)cc(OC)c1O (stereo not given) + COC1C(OC(N)=O)C(O)C(Oc2ccc3c(O)c(NC(=O)c4ccc(O)c(CC=C(C)C)c4)c(=O)oc3c2C)OC1(C)C | NOT MET |
| C=CCn1c(=O)c2cnc(Nc3ccc(N4CCN(C)CC4)cc3)nc2n1-c1cccc(C(C)(C)O)n1 + Nc1ccc(C#CCN(C(=O)Cc2ncc(C(F)(F)F)cc2C(F)(F)F)c2ccc(F)cc2)nn1 | NOT MET |
| CCc1c2c(nc3ccc(O)cc13)-c1cc3c(c(=O)n1C2)COC(=O)[C@]3(O)CC + Nc1ccc(C#CCN(C(=O)Cc2ncc(C(F)(F)F)cc2C(F)(F)F)c2ccc(F)cc2)nn1 | MET |
| CC(C)n1c(=O)n(C)c2cnc3cc(F)c(-c4ccc(OCCCN5CCCCC5)nc4)cc3c21 + COC1C(OC(N)=O)C(O)C(Oc2ccc3c(O)c(NC(=O)c4ccc(O)c(CC=C(C)C)c4)c(=O)oc3c2C)OC1(C)C | NOT MET |
| COc1cccc(OCCCN)c1-c1cc(Nc2cnc(C#N)cn2)n[nH]1 + Cc1cccc(N(C)C(=O)C2C(O)CCN2c2nc(C)cc(C(F)(F)F)c2C#N)c1 | MET |
| COc1cc2cc(C(=O)CCC(=O)O)sc2cc1OC + Nc1ccc(C#CCN(C(=O)Cc2ncc(C(F)(F)F)cc2C(F)(F)F)c2ccc(F)cc2)nn1 | NOT MET |
| O=C(Nc1ccc(O)c(NS(=O)(=O)c2ccc(F)cc2)c1)c1ccc(-c2ccccc2)cc1 + Nc1ccc(C#CCN(C(=O)Cc2ncc(C(F)(F)F)cc2C(F)(F)F)c2ccc(F)cc2)nn1 | NOT MET |
| CCCS(=O)(=O)Nc1ccc(F)c(C(=O)c2c[nH]c3ncc(-c4ccc(Cl)cc4)cc23)c1F + Nc1ccc(C#CCN(C(=O)Cc2ncc(C(F)(F)F)cc2C(F)(F)F)c2ccc(F)cc2)nn1 | NOT MET |
| CC[C@@]1(O)C(=O)OCc2c1cc1n(c2=O)Cc2cc3c(CN(C)C)c(O)ccc3nc2-1 + Cc1cccc(N(C)C(=O)C2C(O)CCN2c2nc(C)cc(C(F)(F)F)c2C#N)c1 | NOT MET |
| CC[C@@]1(O)C(=O)OCc2c1cc1n(c2=O)Cc2cc3c(CN(C)C)c(O)ccc3nc2-1 + COC1C(OC(N)=O)C(O)C(Oc2ccc3c(O)c(NC(=O)c4ccc(O)c(CC=C(C)C)c4)c(=O)oc3c2C)OC1(C)C | MET |
| COc1cccc2c1C(=O)c1c(O)c3c(c(O)c1C2=O)CC(O)(C(=O)CO)CC3OC1CC(N)C(O)C(C)O1 (stereo not given) + Nc1ccc(C#CCN(C(=O)Cc2ncc(C(F)(F)F)cc2C(F)(F)F)c2ccc(F)cc2)nn1 | NOT MET |
| Cn1ncnc1[C@H]1c2n[nH]c(=O)c3cc(F)cc(c23)N[C@@H]1c1ccc(F)cc1 + Cc1cccc(N(C)C(=O)C2C(O)CCN2c2nc(C)cc(C(F)(F)F)c2C#N)c1 | NOT MET |
| CCc1c2c(nc3ccc(O)cc13)-c1cc3c(c(=O)n1C2)COC(=O)[C@]3(O)CC + Cc1cccc(N(C)C(=O)C2C(O)CCN2c2nc(C)cc(C(F)(F)F)c2C#N)c1 | MET |
| COc1ccc([C@@H](O)c2cc(-c3ncnc4cc(N5CCOCC5)ccc34)c(F)cc2Cl)nn1 + Nc1ccc(C#CCN(C(=O)Cc2ncc(C(F)(F)F)cc2C(F)(F)F)c2ccc(F)cc2)nn1 | NOT MET |
| C=CCn1c(=O)c2cnc(Nc3ccc(N4CCN(C)CC4)cc3)nc2n1-c1cccc(C(C)(C)O)n1 + COC1C(OC(N)=O)C(O)C(Oc2ccc3c(O)c(NC(=O)c4ccc(O)c(CC=C(C)C)c4)c(=O)oc3c2C)OC1(C)C | NOT MET |
| CCc1cc2c(N3CCc4c(cc(Cn5ccnc5)cc4-c4cn(C)nc4C(F)(F)F)C3=O)cc(C)nc2c(OC)n1 + Nc1ccc(C#CCN(C(=O)Cc2ncc(C(F)(F)F)cc2C(F)(F)F)c2ccc(F)cc2)nn1 | NOT MET |
| CC1COCCN1c1cc(C2(O)CC3CCC(C2)O3)c2cnn(-c3ccn[nH]3)c2n1 (stereo not given) + Nc1ccc(C#CCN(C(=O)Cc2ncc(C(F)(F)F)cc2C(F)(F)F)c2ccc(F)cc2)nn1 | NOT MET |
